- testSummary: in vivo; also: test concentration or dose not given here
- measurementParameters: rat, plasma, po
Mark true (1) only when AUC stays strictly below 200 ng·h/mL. Values equal to the cut-off are false (0).

{"columns": ["compound", "answerLabel"],
 "data": [
  ["CCc1cccc(COC(=O)NC(C(=O)N[C@@H](Cc2ccccc2)C[C@H](O)[C@H](Cc2ccccc2)NC(=O)OCc2cccnc2)C(C)C)n1 (stereo partly specified)", "false (0)"]
]}

# input Confirm or reject: AUC of Cc1cccc(COC(=O)NC(C(=O)N[C@@H](Cc2ccccc2)C[C@H](O)[C@H](Cc2ccccc2)NC(=O)OCc2ccoc2)C(C)C)n1 (stereo partly specified) lies strictly below 200 ng·h/mL
# output true (1)

# input Confirm or reject: AUC of Cc1cncc(COC(=O)NC(C(=O)N[C@@H](Cc2ccccc2)C[C@H](O)[C@H](Cc2ccccc2)NC(=O)OCc2cccnc2)C(C)C)n1 (stereo partly specified) lies strictly below 200 ng·h/mL
# output false (0)

# input Confirm or reject: AUC of Cc1ncc(CN(C)C(=O)NC(C(=O)N[C@@H](Cc2ccccc2)C[C@H](O)[C@H](Cc2ccccc2)NC(=O)OCc2cccnc2)C(C)C)nc1C (stereo partly specified) lies strictly below 200 ng·h/mL
# output false (0)

# input Confirm or reject: AUC of CC(C)C(NC(=O)OCc1nccs1)C(=O)N[C@@H](Cc1ccccc1)[C@@H](O)C[C@H](Cc1ccccc1)NC(=O)OCc1cccnc1 (stereo partly specified) lies strictly below 200 ng·h/mL
# output false (0)

# input Confirm or reject: AUC of CC(C)C(NC(=O)OCc1cncc(N)c1)C(=O)N[C@@H](Cc1ccccc1)C[C@H](O)[C@H](Cc1ccccc1)NC(=O)OCc1cccnc1 (stereo partly specified) lies strictly below 200 ng·h/mL
# output true (1)
